Biological target: Protein skinhead-1 (Caenorhabditis elegans, UniProt P34707)
Sequence (P34707 whole entry): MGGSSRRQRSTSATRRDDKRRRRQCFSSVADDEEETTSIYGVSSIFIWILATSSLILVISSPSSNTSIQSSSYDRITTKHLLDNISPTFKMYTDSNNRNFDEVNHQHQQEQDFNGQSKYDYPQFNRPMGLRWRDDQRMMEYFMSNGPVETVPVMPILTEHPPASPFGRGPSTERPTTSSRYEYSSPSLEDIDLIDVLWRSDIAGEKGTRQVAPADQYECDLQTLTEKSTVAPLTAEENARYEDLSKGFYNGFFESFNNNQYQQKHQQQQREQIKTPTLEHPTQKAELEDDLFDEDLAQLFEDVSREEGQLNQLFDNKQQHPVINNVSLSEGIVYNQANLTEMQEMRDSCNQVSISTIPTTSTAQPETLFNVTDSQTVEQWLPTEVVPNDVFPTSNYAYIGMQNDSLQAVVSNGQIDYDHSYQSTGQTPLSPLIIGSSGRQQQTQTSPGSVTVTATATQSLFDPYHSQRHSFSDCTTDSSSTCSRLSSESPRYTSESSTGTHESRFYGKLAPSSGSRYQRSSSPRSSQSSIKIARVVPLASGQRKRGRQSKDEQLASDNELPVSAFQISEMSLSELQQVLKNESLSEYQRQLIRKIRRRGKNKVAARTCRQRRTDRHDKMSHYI
Assay type: functional
Activity calls are given as the source filed them.
measurement kind: IC50

// worked examples, IC50 included
INSERT INTO results (molecule, measurement_kind, experimental_value) VALUES
  ('c1ccc(OCc2nc3ccccc3s2)cc1 [2-(PHENOXYMETHYL)BENZOTHIAZOLE]', 'IC50', '29.5 µM (active)'),
  ('O=C(Nc1ccc(Cl)cc1Cl)C1=Cc2ccccc2OC1', 'IC50', '> 100 µM (inactive)'),
  ('CCn1c2ccccc2c2cc(NC(=O)CSc3nnc(-c4ccc(OC)c(OC)c4)n3N)ccc21', 'IC50', '> 100 µM (inactive)'),
  ('C(=C\c1nc(-c2cccnc2)no1)/c1ccccc1', 'IC50', '49 µM (active)');

**Query** Item under review: O=C(/C=C/c1ccc(Cl)cc1Cl)Nc1ccc(CN2CCOCC2)cc1 . Reported IC50?
**Result** 27 µM (active)

**Query** Item under review: CCCCCn1c(N)c(C(=O)NCCN2CCOCC2)c2nc3ccccc3nc21 . Reported IC50?
**Result** > 100 µM (inactive)

====

Molecular target: Corticotropin-releasing factor receptor 2/Corticotropin-releasing factor-binding protein (Homo sapiens, UniProt P24387+Q13324)
Sequence (Q13324 whole entry): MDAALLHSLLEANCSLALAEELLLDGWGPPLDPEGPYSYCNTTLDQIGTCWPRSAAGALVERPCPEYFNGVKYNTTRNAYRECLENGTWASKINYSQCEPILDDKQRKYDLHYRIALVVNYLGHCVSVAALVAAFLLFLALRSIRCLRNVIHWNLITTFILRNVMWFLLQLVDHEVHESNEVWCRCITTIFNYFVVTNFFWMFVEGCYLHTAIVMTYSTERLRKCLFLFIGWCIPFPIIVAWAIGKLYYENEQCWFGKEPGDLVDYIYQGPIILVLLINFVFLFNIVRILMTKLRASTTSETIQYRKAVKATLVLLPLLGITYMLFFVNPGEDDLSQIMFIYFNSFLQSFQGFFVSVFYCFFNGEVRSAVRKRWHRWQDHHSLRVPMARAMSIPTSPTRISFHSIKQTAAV
Sequence (P24387 whole entry): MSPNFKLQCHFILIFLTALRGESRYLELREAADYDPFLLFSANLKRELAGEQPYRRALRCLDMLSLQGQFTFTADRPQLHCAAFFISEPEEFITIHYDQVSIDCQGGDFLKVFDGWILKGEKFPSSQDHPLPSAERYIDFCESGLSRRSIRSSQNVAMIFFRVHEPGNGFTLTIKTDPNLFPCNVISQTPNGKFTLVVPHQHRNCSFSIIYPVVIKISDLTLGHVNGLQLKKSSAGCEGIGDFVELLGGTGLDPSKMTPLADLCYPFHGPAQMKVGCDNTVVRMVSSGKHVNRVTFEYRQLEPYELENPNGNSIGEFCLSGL
Assay: Dose Response confirmation of uHTS hits for small molecule antagonists of the CRF-binding protein and CRF-R2 receptor complex.
Type: functional
Settings: read-out: IC50_Mean
The source made the active and inactive calls.
The categories you may choose from are 1 (yes) = active, 0 (no) = inactive

Field: example entries. Status: answers known.
INSERT INTO assay_data (compound, group_label) VALUES
  ('CSC1=NCCN1C(=O)Cc1ccc(Cl)cc1', '0 (no)'),
  ('Cc1ccccc1-c1nnc(S)n1/N=C/c1c(C)nn(-c2ccccc2)c1C', '1 (yes)'),
  ('COc1ccc(CN2CC(=O)N(c3cccc(Cl)c3)C2=S)cc1OC', '0 (no)'),
  ('CCCOc1ccc(C(=O)N2CCN(c3ccc(NC(=O)CC)cc3Cl)CC2)cc1', '1 (yes)'),
  ('O=C1N=C(N/N=C/c2ccc(F)cc2)SC1c1ccccc1 (stereo not given)', '0 (no)'),
  ('Nc1c(C(=O)N2CCOCC2)sc2nc3c(cc12)CCC3', '0 (no)');

**Query** Write down the call the test reported for this compound. Item: Cc1ccc(S(=O)(=O)N(CC(=O)N=Nc2c(O)[nH]c3ccccc23)c2ccc(C)c(C)c2)cc1
**Result** 1 (yes)

**Query** Write down the call the test reported for this compound. Item: CC(=O)/N=c1/sc(S(N)(=O)=O)nn1C [METHAZOLAMIDE]
**Result** 0 (no)

**Query** Write down the call the test reported for this compound. Item: COc1cccc(CNc2nc(-c3cccnc3)nc3ccccc23)c1
**Result** 0 (no)

**Query** Write down the call the test reported for this compound. Item: COC(=O)c1ccc(CSc2nc3c(cnn3-c3ccc(F)cc3)c(=O)[nH]2)o1
**Result** 0 (no)

**Query** Write down the call the test reported for this compound. Item: CCCCON1C(=O)c2cccc3cccc(c23)C1=O
**Result** 0 (no)

====

Quick reference: CC50 of the listed items.
Assay: HEp-2 cell cytotoxicity, dose response, cytotoxicity control for RSV inhibitor project, HTS (AID 2410)
Assay type: functional
Details: human respiratory syncytial virus
Active and inactive are the calls of the source.

// worked examples, CC50 included
INSERT INTO assay_data (compound, experimental_value) VALUES
  ('COCCNC(=O)CSC1=N/C(=C/c2ccc(Cl)c(Cl)c2)C(=O)N1c1ccccc1F', '47.8 µM (active)'),
  ('CCn1c2ccccc2c2cc(NC(=O)CSc3nnc(-c4ccc(OC)c(OC)c4)n3N)ccc21', '> 50 µM (active)'),
  ('CO/C(O)=C1/C(C)=NC2=C(C(=O)CCC2)C1c1cn(Cc2ccc(Br)cc2)nc1-c1ccccc1 (stereo not given)', '17.4 µM (active)'),
  ('CCc1ccc2nc(N(CCCN(C)C)C(=O)c3ccc(S(=O)(=O)N4CCCc5ccccc54)cc3)sc2c1', '12.7 µM (active)');

**Query** Item under review: Cc1cccc(C2c3[nH]c4ccccc4c3CCN2Cc2cccn2-c2ncccn2)c1 (stereo not given) . Reported CC50?
**Result** 20.4 µM (active)
